Assay: in vitro
Details: human, hela cells, % viability
measure: viability at 28.5 h, 10 µM (%)
Form entry: value (%) — number only.

Worked cases, answers included:
>  <compound>
O=C(CSc1nc(N2CCOCC2)nc(N2CCOCC2)n1)c1ccc([N+](=O)[O-])cc1 [CBK269107]

>  <value unit>
%

>  <value>
86.9

$$$$
>  <compound>
CN(C)CCC(O)(c1ccccc1)c1cc2c(cc1Cl)CCC2 (stereo not drawn) [CBK010000C]

>  <value unit>
%

>  <value>
99.5

$$$$
>  <compound>
Cc1ccccc1-n1c(Cc2ccccc2)nc2c(cnn2-c2ccccc2)c1=O [CBK262310]

>  <value unit>
%

>  <value>
91.6

$$$$

INPUT: Param item = COc1cccc(-c2nc(C3CCN(CCc4ccc(F)cc4)CC3)n3ccccc23)c1 [CBK035373] ; retrieve measured viability at 28.5 h, 10 µM.
OUTPUT: 94.7

INPUT: Param item = O=c1c(Oc2ccc3ccccc3c2)c(C(F)(F)F)oc2c(CN3CCOCC3)c(O)ccc12 [CBK264487] ; retrieve measured viability at 28.5 h, 10 µM.
OUTPUT: 103

INPUT: Param item = Oc1ccc(/C=N/Nc2nncc(-c3ccccc3)n2)c(O)c1O [CBK262492] ; retrieve measured viability at 28.5 h, 10 µM.
OUTPUT: 80.6

INPUT: Param item = O=C(CCCN[C@H]1CC[C@](O)(c2ccc(F)cc2)CC1)c1ccc(F)cc1 [CBK023258C] ; retrieve measured viability at 28.5 h, 10 µM.
OUTPUT: 90.7

INPUT: Param item = C=C(C)CN1CCN(C(C(=O)O)c2c[nH]c3ccc(OCc4ccccc4)cc23)CC1 (stereo not drawn) [CBK286668] ; retrieve measured viability at 28.5 h, 10 µM.
OUTPUT: 80.6

INPUT: Param item = O=C(O)Cc1ccc(NS(=O)(=O)c2ccc(F)cc2)cc1 [CBK269981] ; retrieve measured viability at 28.5 h, 10 µM.
OUTPUT: 94.2
